- experimental-target: 5HT1A receptor (Rattus norvegicus (Rat), UniProt P19327)
- Sequence (P19327 whole entry): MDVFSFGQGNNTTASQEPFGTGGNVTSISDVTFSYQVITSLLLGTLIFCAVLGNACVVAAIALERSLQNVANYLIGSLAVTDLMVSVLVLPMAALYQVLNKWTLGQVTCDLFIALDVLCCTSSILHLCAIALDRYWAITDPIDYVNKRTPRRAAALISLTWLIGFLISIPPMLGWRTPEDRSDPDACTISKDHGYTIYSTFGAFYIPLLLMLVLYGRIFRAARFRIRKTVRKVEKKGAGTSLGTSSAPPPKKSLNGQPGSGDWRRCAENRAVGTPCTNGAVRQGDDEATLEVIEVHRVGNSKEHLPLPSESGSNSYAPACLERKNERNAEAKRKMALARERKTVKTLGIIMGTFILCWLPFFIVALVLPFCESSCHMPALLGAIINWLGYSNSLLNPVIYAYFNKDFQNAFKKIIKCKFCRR
- procedure-summary: 5HT1A receptor binding assay (3H-8-OH-DPAT)
Answer each item with its documented IC50.
Numbers only, in nM.

Your task in this section: give IC50 for each listed record.
1. O=c1oc2c(Cl)c(OCCCCN3CCC(c4noc5cc(F)ccc45)CC3)ccc2c2c1CCC2
2. COc1ccccc1N1CCN(CCCCOc2ccc3c4c(c(=O)oc3c2)CCC4)CC1
3. COc1ccccc1N1CCN(CCCCOc2ccc3c4c(c(=O)oc3c2)CCCC4)CC1

1: 0.73; 2: 0.08; 3: 4.2

Would you be so kind as to report IC50 for each listed record?
1. O=c1oc2c(Cl)c(OCCCCN3CCN(c4nsc5ccccc45)CC3)ccc2c2c1CCC2
2. O=c1oc2cc(OCCCN3CCC(c4noc5cc(F)ccc45)CC3)ccc2c2c1CCC2

1. 0.86
2. 0.03
